- System: Acetylcholinesterase (Plutella xylostella, UniProt Q8MZM0)
- Sequence (Q8MZM0 whole entry): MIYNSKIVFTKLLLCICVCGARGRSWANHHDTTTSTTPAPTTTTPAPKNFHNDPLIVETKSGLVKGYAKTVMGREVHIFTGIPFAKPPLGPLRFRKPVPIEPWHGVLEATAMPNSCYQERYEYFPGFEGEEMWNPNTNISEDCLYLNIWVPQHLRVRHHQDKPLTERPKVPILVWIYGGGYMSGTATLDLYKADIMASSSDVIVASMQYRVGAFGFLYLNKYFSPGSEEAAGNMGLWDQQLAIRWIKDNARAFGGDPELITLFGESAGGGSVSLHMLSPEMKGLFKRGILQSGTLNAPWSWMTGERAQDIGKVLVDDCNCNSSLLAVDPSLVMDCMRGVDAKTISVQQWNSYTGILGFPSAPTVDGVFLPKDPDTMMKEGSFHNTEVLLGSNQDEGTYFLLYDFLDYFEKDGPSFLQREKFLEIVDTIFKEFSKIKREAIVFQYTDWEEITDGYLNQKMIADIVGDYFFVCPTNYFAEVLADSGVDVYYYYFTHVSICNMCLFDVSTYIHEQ
- Measurement Description: Inhibition of AChE in drug-sensitive Plutella xylostella (diamondback moth) fourth-instar larvae homogenates using acetylthiocholine iodide substrate by colorimetric method
- Study Conditions: read-out: I50
Readout Type: pIC50
Expect pIC50 as a plain number equal to -log10 of the molar concentration.

[[record]]
sequence_code = "TRIPHENYLSTANNYL 2-(DIMETHYLCARBAMOTHIOYLTHIO)ACETATE"
observed_measurement = 1.58


Next item in the queue.
[in] Form field: reported pIC50 of TRIPHENYLSTANNYL 2-(DIMETHYLCARBAMOYLTHIO)ACETATE
[out] 5.27
